- Test system: Human betaherpesvirus 5
- test: Cytotoxicity against Human cytomegalovirus (AD169) strain(HCMV)
- Assay type: functional
endpoint: CC50

O=C1c2ccccc2N(COCc2ccccc2)S(=O)(=O)N1COCc1ccccc1    > 57 µM
O=C1c2ccccc2N(Cc2ccccc2)S(=O)(=O)N1Cc1ccccc1Cl    > 60 µM
O=C1c2ccccc2N(Cc2ccc(Cl)cc2)S(=O)(=O)N1Cc1ccccc1    > 60 µM

Working through the 3 compounds below one at a time, give CC50 for each.
1. O=C1c2ccccc2N(Cc2ccccc2)S(=O)(=O)N1Cc1ccccc1
2. O=C1c2ccccc2N(Cc2ccccc2Cl)S(=O)(=O)N1Cc1ccccc1
3. O=C1c2ccccc2N(Cc2ccc(Cl)cc2)S(=O)(=O)N1COCc1ccccc1

output:
> 66 µM
> 60 µM
> 56 µM

The measured values listed here are drawn from ChEMBL document CHEMBL1131869.
